# Test system: A549
# assay_notes: Antiproliferative activity against human A549 cells assessed as reduction in cell viability incubated for 72 hrs by MTT assay
# Type: functional, cell-based
# setup_conditions: A549, 72 h
pIC50: −log10 of the molar value.
Label 1 (yes) when pIC50 is at or above 5; anything below gets 0 (no).

{"input_smiles": "O=C1O/C(=C\\Cn2cc(CCO)nn2)C(OCc2ccccc2)=C1OCc1ccccc1", "answer_label": "0 (no)"}
{"input_smiles": "CC(C)(C)c1cn(C/C=C2\\OC(=O)C(OCc3ccccc3)=C2OCc2ccccc2)nn1", "answer_label": "1 (yes)"}
{"input_smiles": "O=C1O[C@H]([C@@H](O)Cn2cc(-c3cc(C(F)(F)F)cc(C(F)(F)F)c3)nn2)C(OCc2ccccc2)=C1OCc1ccccc1", "answer_label": "0 (no)"}
{"input_smiles": "O=C1O[C@H]([C@@H](O)CO)C(O)=C1O", "answer_label": "0 (no)"}
{"input_smiles": "O=C1O[C@H]([C@@H](O)Cn2cc(CNS(=O)(=O)c3ccc(F)cc3)nn2)C(OCc2ccccc2)=C1OCc1ccccc1", "answer_label": "0 (no)"}

Enquiry: Entry O=C1O[C@H]([C@@H](O)Cn2cc(-c3ccc(Br)cc3)nn2)C(OCc2ccccc2)=C1OCc1ccccc1 : is its pIC50 no less than 5?
Return: 1 (yes)

Enquiry: Is pIC50 for COc1ccccc1-c1cn(C/C=C2\OC(=O)C(OCc3ccccc3)=C2OCc2ccccc2)nn1 at or above 5?
Return: 0 (no)

Enquiry: In plain terms: is recorded pIC50 at least 5 for CCCCCCCCCCc1cn(C[C@H](O)[C@H]2OC(=O)C(OCc3ccccc3)=C2OCc2ccccc2)nn1 ?
Return: 1 (yes)

====

# Test system: Human coronavirus 229E
# assay_notes: Antiviral activity against Human coronavirus 229E infected in human HELF cells assessed as reduction in virus-induced cytopathogenicity incubated for 7 days by microscopic analysis
# Assay type: functional, organism-based
The source made the active and inactive calls. The calls are words filed in the database; no cut-off is given here.
parameter: Activity

{"input_smiles": "COc1ccccc1-c1cn(C/C=C2\\OC(=O)C(OCc3ccccc3)=C2OCc2ccccc2)nn1", "Activity": "inactive"}
{"input_smiles": "CCCCCCCCCCc1cn(C[C@H](O)[C@H]2OC(=O)C(OCc3ccccc3)=C2OCc2ccccc2)nn1", "Activity": "inactive"}
{"input_smiles": "O=C1O/C(=C\\Cn2cc(-c3ccc(Br)cc3)nn2)C(OCc2ccccc2)=C1OCc1ccccc1", "Activity": "inactive"}
{"input_smiles": "O=C1O/C(=C\\Cn2cc(CCO)nn2)C(OCc2ccccc2)=C1OCc1ccccc1", "Activity": "inactive"}

Now consider a different molecule.
The recorded Activity for O=C1O[C@H]([C@@H](O)Cn2cc(C3CC3)nn2)C(OCc2ccccc2)=C1OCc1ccccc1 is inactive

====

# Tested on: SW-620
# assay_notes: Antiproliferative activity against human SW620 cells assessed as reduction in cell viability incubated for 72 hrs by MTT assay
# Type: functional, cell-based
# setup_conditions: SW-620, 72 h
Quick list: pIC50 per entry.
Note on pIC50: it is the negative log10 of concentration, concentration in mol/L.

Some compounds with known pIC50 results, for comparison:
{"input_smiles": "CCCCCCCCCCc1cn(C/C=C2\\OC(=O)C(OCc3ccccc3)=C2OCc2ccccc2)nn1", "readout_value": 4.04}
{"input_smiles": "COc1ccc(-c2cn(C[C@H](O)[C@H]3OC(=O)C(OCc4ccccc4)=C3OCc3ccccc3)nn2)cc1", "readout_value": 4.23}

compound O=C1O[C@H]([C@@H](O)Cn2cc(-c3cc(C(F)(F)F)cc(C(F)(F)F)c3)nn2)C(OCc2ccccc2)=C1OCc1ccccc1 , pIC50 observed: 4.31
